# Method Description: Antioxidant activity assessed as superoxide anion scavenging activity by NBT reduction method
# Assay type: functional
# Set-up: concentration or dose not given beside the values
Result Type: Activity (%)
Answers are plain numbers, in %.

Some entries whose results are on file:
>  <Compound>
COC(=O)[C@]12CC[C@@H](C)[C@H](C)[C@H]1C1=CC[C@@H]3[C@@]4(C)C[C@@H](N=[N+]=[N-])[C@H](N=[N+]=[N-])C(C)(C)[C@@H]4CC[C@@]3(C)[C@]1(C)CC2

>  <Activity, %>
69.1

$$$$
>  <Compound>
COC(=O)[C@@]1(C)CC[C@]2(C)CC[C@]3(C)C(=CC(=O)[C@@H]4[C@@]5(C)C[C@H](O)[C@@H](O)C(C)(C)[C@@H]5CC[C@]43C)[C@@H]2C1

>  <Activity, %>
65.1

$$$$
>  <Compound>
COC(=O)[C@]12CC[C@@H](C)[C@H](C)[C@H]1C1=CC[C@@H]3[C@@]4(C)C[C@@H](O)[C@H](O)C(C)(C)[C@@H]4CC[C@@]3(C)[C@]1(C)CC2 [COROSOLIC ACID METHYL ESTER]

>  <Activity, %>
68

$$$$

Give Activity for each of the items listed below.
1. COC(=O)[C@@]1(C)CC[C@]2(C)CC[C@]3(C)C(=CC(=O)[C@@H]4[C@@]5(C)C[C@H](N)[C@@H](N)C(C)(C)[C@@H]5CC[C@]43C)[C@@H]2C1
2. O=C1O[C@H]([C@@H](O)CO)C(O)=C1O
3. COC(=O)[C@@]1(C)CC[C@]2(C)CC[C@]3(C)C(=CC(=O)[C@@H]4[C@@]5(C)C[C@H](N=[N+]=[N-])[C@@H](N=[N+]=[N-])C(C)(C)[C@@H]5CC[C@]43C)[C@@H]2C1
4. COC(=O)[C@]12CC[C@@H](C)[C@H](C)[C@H]1C1=CC[C@@H]3[C@@]4(C)C[C@@H](N)[C@H](N)C(C)(C)[C@@H]4CC[C@@]3(C)[C@]1(C)CC2

1. 70.1
2. 45
3. 68.1
4. 74.2
